The measurements presented in this section are drawn from PubChem BioAssay (NCI).

system: SW-620 colon; assay: NCI tumour cell line growth inhibition, 48 h
measure: TGI

molecule: COC1OC(COC(=O)NCCCCC(=O)C(F)(F)F)C(O)C(O)C1O (stereo unspecified)
TGI: > 100 µM

Please go through the list and note TGI for each molecule.
1. CCO[C@@H]1C2C=CC(C2)[C@H]1[N+](=O)[O-] (stereo partly specified)
2. CC(=O)C1=C([O-])C(C)OC1=O.CC(=O)C1=C([O-])C(C)OC1=O.[NH-]C1CCCC[C@H]1[NH-].[Pt+4] (stereo unspecified)
3. O=C(Cc1ccccc1)N/N=C(\C1=Nc2ccc([N+](=O)[O-])cc2NC1O)C(O)c1ccc([N+](=O)[O-])cc1 (stereo unspecified)
4. Oc1cc(Cl)ccc1Oc1ccc(Cl)cc1Cl
5. CN(N)/N=N/c1nc[nH]c1C(N)=O
6. FC(F)(F)c1ccc2nc(Nc3ccc(Cl)c(Cl)c3)c(-c3ccccc3)nc2c1

Result:
1: > 100 µM; 2: > 100 µM; 3: > 100 µM; 4: 12.7 µM; 5: > 100 µM; 6: > 100 µM
